Molecular target: T1, huNav1.7α + β1 (HEKa/β1) (human, UniProt Q15858 1-1988; Q07699 19-218)
T1 construct: also called HEKa/β1 huNav1.7α
Assay: binding FACS, HEKa/β1 cells
Endpoint label: pEC50
Remember, pEC50 is on a log scale: it is -log10 of the molar concentration.

Binder	Readout value
F010301663 (VHH) VHH: EVQLVESGGGLVQPGGSLRLSCAASVRPFSTSAMGWFRQAPEKEREAVAGILWNGIVTYYADSVKGRFTISRDNAKNEVYLQMNKLKPEDTAVYYCALDRAYGGRSFSAKEYEYWGQGTLVTVSS	7.85

Entry F010301658 (VHH) VHH: EVQLVESGGGLVQPGGSLRLSCAASVRPFSTSAMGWFRQAPEKEREAVAAILWNGIVTYYADSVKGRFTISRDNAKNEVYLQMNKLKPEDTAVYYCALDRAYQGRSFSAKEYEYWGQGTLVTVSS ; pEC50 = 7.70

Entry F010301584 (VHH, W52aT vs F0103362B08 (Kabat)) VHH: EVQLVESGGGLVQAGGSLRLSCAASVRPFSTSAMGWFRQAPEKEREAVAGILTNGIVTYYADSVKGRFTISRDNAKNEVYLQMNKLKPEDTAVYYCALDRDYGGRSFSAYEYEYWGQGTLVTVSS ; pEC50 = 7.38

Entry F010301606 (VHH, Y100fK vs F0103362B08 (Kabat)) VHH: EVQLVESGGGLVQAGGSLRLSCAASVRPFSTSAMGWFRQAPEKEREAVAGILWNGIVTYYADSVKGRFTISRDNAKNEVYLQMNKLKPEDTAVYYCALDRDYGGRSFSAKEYEYWGQGTLVTVSS ; pEC50 = 7.62
